growth inhibition for assorted compounds
Test: antimalarial activity against Dd2 strain (AID 2302);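 note: 0% = DMSO untreated growth and 100% = chloroquine plus artemisinin killed control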
Conditions: P. falciparum Dd2 in RBCs, LDH growth readout, 72 h; at 2 µM; active compounds read high
# number only, unit % dropped from output

INSERT INTO results (compound, result_value) VALUES
  ('CN(c1cc(NC(=O)c2cccs2)ccn1)C1CCN(Cc2cccc(C#N)c2)CC1', 69),
  ('COc1ccccc1CC(C)NCC(O)c1cccc(Cl)c1 (stereo not given)', 98),
  ('C/C=C1\CN2CC[C@H]1C[C@H]2[C@H](O)c1ccnc2ccc(O)cc12', -1);

Input: growth inhibition for "CC[C@H]1CN2CC[C@H]1C[C@H]2[C@H](O)c1cc(-c2ccc(OC(F)(F)F)cc2)nc2ccc(OC)cc12" ?
Output: 99

Input: Request the reported growth inhibition associated with CCOC(C(=O)OCC1CCCN1C)(c1ccccc1)c1ccccc1 (stereo not given)
Output: 3

Input: Recorded growth inhibition for "CCOC(C(=O)OCCN(C(C)C)C(C)C)(c1ccccc1)c1ccccc1" , please?
Output: 4

Input: Would you mind telling me what growth inhibition value was observed for "CCCCCCC(C)(C)c1cc(O)c2c3c(c(=O)oc2c1)CCN(Cc1ccccc1)C3" ?
Output: 99

Input: What measured growth inhibition goes with Cc1[nH]c2cc(F)ccc2c1C1=CCN(CCCCC2(C)C(=O)Nc3ccccc32)CC1 (stereo not given) ?
Output: 90

Input: I would be grateful if you could share the reported growth inhibition for CCCCC/C=C/C(=O)NC1CCC(CN2CCC(c3c[nH]c4ccccc34)CC2)CC1 (stereo not given) .
Output: 11

Input: For the compound shown here, CC(Cc1ccc(SCCSc2ccccc2)cc1)NCC(O)c1cccc(Cl)c1 (stereo not given) , give the reported growth inhibition.
Output: 96

###

Tested on: R275C/beta2Delta
Assay: modulators of BK channel variants, profiling panel, selectivity assay, cell-based, U2OS BacMam, thallium flux, beta subunits (AID 1259406);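 note: initial slope of Thallos dye fluorescence rise after thallium is added; log ratio against the mean of 0.3% DMSO vehicle wells on the same plate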
Settings: at 30 µM
Active and inactive are the calls of the source.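 How the source made its calls: active means thallium flux through the channel raised or lowered by more than 3 SD from vehicle-only wells, actives on both sides; inactive means the rest.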
The reply should name one outcome from t (active), f (inactive)

Here's what some known entries look like.
INSERT INTO measurements (compound, class_assignment) VALUES
  ('CS(=O)(=O)Nc1ccc(Cc2noc(-c3ccc4[nH]cc(CCN)c4c3)n2)cc1', 'f'),
  ('CCCC(C)(COC(N)=O)COC(=O)NC(C)C (stereo not drawn)', 'f'),
  ('COc1ccc2[nH]cc(CCN)c2c1', 'f');

Input: Look up the recorded call for NC(=O)CS(=O)C(c1ccccc1)c1ccccc1 (stereo not drawn) in this test.
Output: f

Input: Recorded test outcome, item "CN1C(=O)CN=C(c2ccccc2)c2cc(Cl)ccc21"
Output: f

###

Collected fold change values appear next to each entry.
Assay: sensitizers of A549 cells to miR-34 induction, primary screen, imaging, A549 dox-inducible miR-34, nuclei and caspase counts (AID 1347080)
Conditions: A549 miR-34 inducible, Hoechst nuclei count, 48 h; active compounds read low
// no unit, no text: just the number

Worked cases, answers included:
INSERT INTO measurements (compound, measured_attribute, result_value) VALUES
  ('CC(C)(C)c1cc(C=C(C#N)C#N)cc(Br)c1O', 'fold change', 0.886),
  ('Cc1cc(C(=O)CN2CCCC2)c(C)n1-c1ccc(F)cc1', 'fold change', 0.909),
  ('COc1ccc2c(c1OC)C(=O)O[C@H]2[C@@H]1c2cc3c(cc2CCN1C)OCO3', 'fold change', 0.977),
  ('CC(C)NP(=O)(NC(C)C)OP(=O)(NC(C)C)NC(C)C', 'fold change', 0.945),
  ('CCNC1(c2cccs2)CCCCC1=O (stereo unspecified)', 'fold change', 0.914);

Input: I'd like to know its fold change. The compound in question is C[C@]12Cc3cn[nH]c3CC1CCC1C2CC[C@@]2(C)C1CC[C@]2(C)O (stereo partly specified)
Output: 0.922
